# procedure text: modulators of S6 phosphorylation in cells, primary screen, cell-based, A549, cytoblot, luminescence, serum-stimulated (AID 1158);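 also: serum-stimulated A549 lung adenocarcinoma cells; signal is phosphorylated S6 detected by cytoblot immunostaining with HRP secondary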
# details: A549 phospho-S6 cytoblot, 5 h, higher = more signal

[
  {
    "compound": "CC1CC/C=C\\[C@H]2OC34C=CCN(CCN5CCOCC5)C(=O)[C@H]3N(CCCCCCO)C(=O)[C@@H]4C2C(=O)O1 (some centres undefined)",
    "z-score": -0.375
  },
  {
    "compound": "COCC(=C=CC[C@@H](O)c1ccc(OCCO)cc1)C[C@@H](O)COCc1ccccc1",
    "z-score": 2.43
  },
  {
    "compound": "Cc1c(-c2ccc(-c3ccc(Cl)c(Cl)c3)o2)nc(-c2ccccc2)c2c1CO[Si]2(C(C)C)C(C)C",
    "z-score": -0.298
  },
  {
    "compound": "CC(C)C[C@@H]1NC(=O)[C@H]2C[C@@H](C(=O)NCCCCCNC(=O)CS)[C@@H](c3ccc(O)cc3)N2C1=O",
    "z-score": -0.277
  }
]

---

Reported z-score values are given for each entry in this list.
# procedure text: E. coli DRC41 culture turbidity changes, primary screen, E. coli filamentation inducer project, strain DRC41, OD650, 48 h (AID 1152);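 also: E. coli MC1000 strain DRC41 lacking acrAB efflux pump and sulA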
# details: E. coli DRC41 (acrAB sulA), higher = more signal, called active from +8 up or from −8 down
readout: z-score

[
  {
    "compound": "COCCOC(=O)N1C(=O)[C@@]2(c3cc(C#Cc4ccc(OC)cc4)ccc31)[C@H](c1ccc(OCCO)cc1)N1[C@H](c3ccccc3)[C@H](c3ccccc3)OC(=O)[C@H]1[C@@H]2C(=O)N1CCCCCCC1",
    "assay result": 0.543
  },
  {
    "compound": "COc1cccc(C[C@H]2C[C@@H](CO[Si](C(C)C)(C(C)C)C(C)C)N3C(=O)[C@@]4(C(C)=O)O[C@@]23[C@@H]2C(=O)N(C)C(=O)[C@@H]24)c1",
    "assay result": -0.848
  },
  {
    "compound": "N#Cc1ccc(C(O)C2C=CC3C(=O)N(c4ccccc4)C(=O)C3N2Nc2ccc([N+](=O)[O-])cc2)cc1 (stereo not given)",
    "assay result": -0.955
  },
  {
    "compound": "CC(=O)NCCCC[C@@H]1NC(=O)[C@H]2C[C@@H](C(=O)NCCCCCC[N+](C)(C)C)[C@@H](c3ccc(O)cc3)N2C1=O",
    "assay result": 0.371
  },
  {
    "compound": "C=C(CCCC)/C(=C/C[C@H](OC(C)=O)c1cccc(OCCO)c1)c1cc(C(=O)OC)ccc1OC",
    "assay result": 1.19
  },
  {
    "compound": "CC(C)(C)OC(=O)CC[C@]1(C(N)=O)N=C(c2ccc(OCCCO)cc2)O[C@H]1c1ccccc1CN=[N+]=[N-]",
    "assay result": 0.434
  },
  {
    "compound": "COC(=O)C1(CC(C)C)C=C2C(=C(C(C)C)C(=O)C2C)CN1 (stereo not given)",
    "assay result": -1.85
  },
  {
    "compound": "COc1ccc(NN2C(C(O)c3cc(C(F)(F)F)cc(C(F)(F)F)c3)C=CC3C(=O)N(C4CCCCC4)C(=O)C32)cc1 (stereo not given)",
    "assay result": -0.523
  },
  {
    "compound": "O=C1c2ccccc2[C@](Cc2ccccc2I)(C(=O)O)[C@H](c2ccc(CO)cc2)N1Cc1ccccc1",
    "assay result": 0.848
  },
  {
    "compound": "COCC(=C=CC[C@@H](O)c1ccc(OCCO)cc1)C[C@@H](O)COCc1ccccc1",
    "assay result": 1.81
  },
  {
    "compound": "CCCC[C@@H]1C[C@H]1[C@@H](NC(=O)c1ccc(C(F)(F)F)cc1)c1ccc(C(=O)OC)cc1",
    "assay result": -0.499
  },
  {
    "compound": "CN(C)CCCC[C@@H]1NC(=O)[C@@H]2C[C@H](C(=O)NCCCCCCNC(=O)CS)[C@H](c3cccc(OCCO)c3)N2C1=O",
    "assay result": -0.0099
  },
  {
    "compound": "C[C@H]1C2[C@H](Cc3ccccc3)NC(=O)[C@]23C(=O)NCC(=O)N2CCC[C@H]2C(=O)NC/C=C\\C/C=C/C3[C@@H]2O[C@]12C (stereo not given in full)",
    "assay result": 0.822
  },
  {
    "compound": "CC(=O)c1ccc(C(O)C2C=CC3C(=O)N(C)C(=O)C3N2NC(=O)OC(C)(C)C)cc1 (stereo not given)",
    "assay result": -1.33
  },
  {
    "compound": "CC(C)CNC(=O)[C@@H]1c2ccccc2C(=O)N(CC23CC4CC(CC(C4)C2)C3)[C@H]1c1ccc(CO)cc1",
    "assay result": 0.075
  }
]

---

Reported composite z-score values are given for each entry in this list.
# measured on: Torsin-1A (Homo sapiens)
# procedure text: torsin A binders from cell lysate, primary screen, small-molecule microarray, wild-type, 635/667 nm (AID 1149)
# details: COS7 hTOR1A-WT lysate, 635 nm fluorescence, higher = more signal

[
  {
    "item smiles": "C=CC[C@@]1(C(=O)O)N=C(c2ccc(OCCCO)cc2)O[C@@H]1c1ccccc1CN=[N+]=[N-]",
    "composite z-score": -0.0975
  },
  {
    "item smiles": "[N-]=[N+]=NCc1ccccc1C[C@]1(C(=O)N2CCCCC2)N=C(c2ccc(OCCCO)cc2)O[C@H]1c1ccccc1",
    "composite z-score": 0.81
  },
  {
    "item smiles": "CCOC(=O)C1=CC[C@@H](c2ccccc2)N(S(=O)(=O)C[Si](C)(C)C)[C@H]1c1ccccc1",
    "composite z-score": 0.899
  },
  {
    "item smiles": "COc1ccc([Si](C)(C)[C@H]2[C@H](CC(=O)N3Cc4ccccc4C[C@H]3CO)O[C@@]3(C(=O)N(Cc4cccc(N5C(=O)c6cccc7cccc5c67)c4)c4ccccc43)[C@@H]2C)cc1",
    "composite z-score": 1.39
  }
]

---

# System: Wnt5a (protein binding on small-molecule microarray)
# procedure text: Wnt5a binders on small-molecule microarray, primary screen, biophysical, 635/667 nm fluorescence (AID 1142);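 also: fluorescence read at 667 nm with signal to noise per printed feature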
# details: 635 nm fluorescence, higher = more signal
We use 0.04 as the dividing line for composite z-score: on or above the line is Condition met, below is Condition not met.

[
  {
    "molecule": "CC(=O)c1ccc(C(O)C2C=CC3C(=O)NC(=O)C3N2Nc2ccc(Cl)cc2Cl)cc1 (stereo not given)",
    "discrete label": "Condition not met"
  },
  {
    "molecule": "C=CCC(OC(C)=O)[C@@H]1[C@@H](N(Cc2cc3ccccc3o2)C(=O)Cc2ccc(OC)cc2)c2cc(OCCCO)ccc2N1C(=O)Cc1ccc2ccccc2c1 (stereo not given in full)",
    "discrete label": "Condition not met"
  },
  {
    "molecule": "CCC(CC)C(O)C1C=CC2C(=O)N(C)C(=O)C2N1N1CCCCC1 (stereo not given)",
    "discrete label": "Condition met"
  },
  {
    "molecule": "CO[C@H]1O[C@H](CO)[C@@H](OC(=O)Nc2ccc3c(c2)OCO3)[C@@H]2OC(=O)[C@@H](Cc3ccccc3)C/C=C/C[C@H](Cc3ccccc3)C(=O)O[C@@H]12",
    "discrete label": "Condition met"
  },
  {
    "molecule": "CO[C@H]1O[C@H](CO)[C@@H](OC(=O)Nc2ccc(C(F)(F)F)cc2)[C@H](OC(=O)Nc2ccccc2-c2ccccc2)[C@@H]1OC(=O)Nc1ccccc1-c1ccccc1",
    "discrete label": "Condition met"
  },
  {
    "molecule": "C[C@H]1C2[C@H](Cc3ccccc3)NC(=O)[C@]23C(=O)NCC(=O)N2CCC[C@H]2C(=O)NC/C=C\\C/C=C/C3[C@@H]2O[C@]12C (stereo not given in full)",
    "discrete label": "Condition not met"
  },
  {
    "molecule": "C#CCN=C(N)N",
    "discrete label": "Condition not met"
  },
  {
    "molecule": "CC=CC(O)C1C=CC2C(=O)N(C)C(=O)C2N1NC(=O)OC(C)(C)C (stereo not given)",
    "discrete label": "Condition met"
  },
  {
    "molecule": "CC(C)[Si](C#CCCCC#N)(O[C@H](c1ccccc1)c1cn([C@H](C)c2ccccc2)nn1)C(C)C",
    "discrete label": "Condition met"
  },
  {
    "molecule": "CC(C)CNC(=O)[C@@]1(C)c2ccccc2C(=O)N(Cc2cc(F)cc(C(F)(F)F)c2)[C@H]1c1ccc(CO)cc1",
    "discrete label": "Condition not met"
  },
  {
    "molecule": "COc1cc2c(cc1O)C(c1ccc(CN3CCCC3)cc1)N(Cc1ccc([N+](=O)[O-])o1)CC2 (stereo not given)",
    "discrete label": "Condition not met"
  },
  {
    "molecule": "C=CCOC(=O)[C@@H]1[C@H]2C(=O)O[C@H](c3ccccc3)[C@H](c3ccccc3)N2[C@H](c2ccc(OCCOC(=O)[C@H]3C[C@H]4C(=O)NCC(=O)N4[C@H]3c3ccc(O)cc3)cc2)[C@@]12C(=O)Nc1ccc(I)cc12",
    "discrete label": "Condition met"
  },
  {
    "molecule": "[N-]=[N+]=NCc1ccccc1[C@H]1OC(c2ccc(OCCCO)cc2)=N[C@@]1(Cc1ccccc1)C(=O)N1CCOCC1",
    "discrete label": "Condition met"
  },
  {
    "molecule": "CC(C)(C)N1CC=CC23O[C@@H]4/C=C\\CCCOC(=O)C4[C@H]2C(=O)N(CCCCCCO)[C@@H]3C1=O (stereo not given in full)",
    "discrete label": "Condition not met"
  }
]
